These data points were gathered from paper PMC10683023.

Test: Enzymatic bioconversion in mouse serum
Format: in vitro ADME
Settings: mouse, serum; 37 °C, mean ± SD, n = 3; read-out: Enzymatic bioconversion half-life t1/2, mouse serum
assay-metric: half-life at 1 mM (h)
Provide only the numeric value, understood in h.

Incoming: Report measured half-life at 1 mM; entry is N[C@@H](Cc1cc(I)c(OC(=O)c2ccccc2O)c(I)c1)C(=O)O [Prodrug 3]
Outgoing: 1.39

====

Experiment: Enzymatic bioconversion in mouse serum
Type: in vitro ADME
Settings: after 5 h incubation, 37 °C, mean ± SD, n = 3
Entries and their Enzymatic stability, remaining percentage, mouse serum values follow.
Provide only the numeric value, understood in %.

Illustrative cases are given below, each with its answer.
1) CC(C(=O)Oc1c(I)cc(Oc2c(I)cc(C[C@H](N)C(=O)O)cc2I)cc1I)c1cccc(C(=O)c2ccccc2)c1 (mixture of isomers) [Prodrug 2]: 98.79
2) COc1ccc2cc([C@H](C)C(=O)Oc3c(I)cc(C[C@H](N)C(=O)O)cc3I)ccc2c1 [Prodrug 5]: 96.75
3) CC(C(=O)Oc1c(I)cc(Oc2c(I)cc(C[C@H](N)C(=O)O)cc2I)cc1I)c1ccc(-c2ccccc2)c(F)c1 (mixture of isomers) [Prodrug 8]: 96.79

The record that follows has no Enzymatic stability, remaining percentage, mouse serum shown yet.
Incoming: Report measured Enzymatic stability, remaining percentage, mouse serum; entry is N[C@@H](Cc1cc(I)c(Oc2cc(I)c(OC(=O)c3ccccc3O)c(I)c2)c(I)c1)C(=O)O [Prodrug 4]
Outgoing: 96.79
